These measurements were taken from PubChem BioAssay AID588552.

- target-or-test-system: Regulator of G-protein signaling 4 (Rattus norvegicus) (UniProt P49799)
- Sequence (P49799 whole entry, looked up): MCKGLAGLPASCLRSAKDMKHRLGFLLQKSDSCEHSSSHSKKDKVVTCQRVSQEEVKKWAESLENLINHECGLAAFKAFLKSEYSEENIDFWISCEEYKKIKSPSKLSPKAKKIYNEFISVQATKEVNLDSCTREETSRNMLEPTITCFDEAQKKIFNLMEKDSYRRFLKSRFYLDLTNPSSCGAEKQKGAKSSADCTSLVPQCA
- run-description: RGS4-stimulated Galphai1 GTP hydrolysis blockers – biochemical, rat RGS4, steady-state, receptor-independent, malachite green, confirmation (AID 588552)
- particulars: RGS4-stimulated Galphai1 GTPase, malachite green phosphate absorbance
The source made the active and inactive calls.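 The calls were made as follows: active = compounds whose IC50 for blocking RGS4-driven GTP breakdown by the G-protein falls below a set limit; inactive = IC50 above a set limit.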
Possible outcomes: active, inactive

* Cc1cc2nc(CS)[nH]c2cc1C | inactive
* O=C(/C=C/c1ccncc1)c1ccc2c(c1)OCCO2 | active
* Cc1cc(-c2n[nH]c(=S)n2/N=C/C(Br)=C/c2ccccc2)n[nH]1 | active
* Cc1ccc(C(C2C(=O)CC(C)(C)CC2=O)C2C(=O)CC(C)(C)CC2=O)s1 | active
* CN1C(=O)/C(=C\c2ccc(Br)s2)C(=O)NC1=S | active
* CCCN1CCc2cc(O)cc3c2[C@H]1Cc1ccc(O)c(O)c1-3 | active
* CCOCCCNC(=O)/C(C#N)=C\c1ccc([N+](=O)[O-])o1 | active
* COc1cccc(/C=C/C(=O)c2c(O)cc(C)oc2=O)c1O | inactive
* COc1ccc(C(C[N+](=O)[O-])c2c(-c3ccccc3)cc3ccccn23)cc1OC (stereo unspecified) | inactive
* CC1=NOC(=O)/C1=C/c1ccc(O)cc1 | inactive
* CCOC(=O)/C=C/C(=O)OCC(=O)N1CCN(C(=O)c2ccco2)CC1 | inactive
